- Assay Target: T1, human IL-23R endogenously expressed on DB cells (human, UniProt Q5VWK5 24-629)
- T1 sequence (looked up): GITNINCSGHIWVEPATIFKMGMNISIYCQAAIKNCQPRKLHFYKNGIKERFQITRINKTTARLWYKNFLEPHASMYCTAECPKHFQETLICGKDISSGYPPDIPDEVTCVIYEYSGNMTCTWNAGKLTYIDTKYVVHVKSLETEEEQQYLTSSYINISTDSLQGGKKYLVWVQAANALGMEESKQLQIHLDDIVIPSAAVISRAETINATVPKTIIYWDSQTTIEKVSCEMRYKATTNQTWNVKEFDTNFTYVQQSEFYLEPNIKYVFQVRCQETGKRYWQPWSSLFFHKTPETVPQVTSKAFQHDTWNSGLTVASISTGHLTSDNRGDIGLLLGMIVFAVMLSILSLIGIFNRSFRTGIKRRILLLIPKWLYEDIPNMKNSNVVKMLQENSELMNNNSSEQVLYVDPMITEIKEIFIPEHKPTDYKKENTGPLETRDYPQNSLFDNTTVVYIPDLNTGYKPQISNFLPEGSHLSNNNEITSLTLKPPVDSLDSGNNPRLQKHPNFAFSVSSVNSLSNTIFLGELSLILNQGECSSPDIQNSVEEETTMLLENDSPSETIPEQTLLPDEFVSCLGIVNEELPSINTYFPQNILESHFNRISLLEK
- Assay Protocol: cell-based or functional assay
*1 amine or outer side, *2 acyl side, *3 side chain or, on linkers, in order; H or OH if unused. Bridges are numbered along the chain shown (N, C = ends). Where no end group is shown, it is not given here. [ ]: non-standard residue; d: D form. 4‑Aminomethyl‑phenylacetyl = 4-aminomethyl-phenylacetyl unit, its amine closes the lactam, O=C(Cc1ccc(CN[*:1])cc1)[*:2]; 2Nal = N[C@@H](Cc1ccc2ccccc2c1)C(=O)O; AEF = NCCOc1ccc(C[C@H](N)C(=O)O)cc1; 3Pal = N[C@@H](Cc1cccnc1)C(=O)O; αMeL = CC(C)C[C@](C)(N)C(=O)O; Dab = NCC[C@H](N)C(=O)O
Measurement Type: hIL-23 (pSTAT3) antagonist IC50 (nM)
Return type: number; implicit unit nM.

Please give the measured hIL-23 (pSTAT3) antagonist IC50 for this binder: [4‑Aminomethyl‑phenylacetyl]SEWQ[Dab][AEF][2Nal][αMeL]E[Dab]H[3Pal]-NH2 (lactam (positions not given here); lactam 3-6; not fully specified (bridges)) [Compound 12]
3.5
